Source of measurements: ChEMBL document CHEMBL1133464

tested_system: Metabotropic glutamate receptor 5 (Homo sapiens)
Sequence (P41594 whole entry): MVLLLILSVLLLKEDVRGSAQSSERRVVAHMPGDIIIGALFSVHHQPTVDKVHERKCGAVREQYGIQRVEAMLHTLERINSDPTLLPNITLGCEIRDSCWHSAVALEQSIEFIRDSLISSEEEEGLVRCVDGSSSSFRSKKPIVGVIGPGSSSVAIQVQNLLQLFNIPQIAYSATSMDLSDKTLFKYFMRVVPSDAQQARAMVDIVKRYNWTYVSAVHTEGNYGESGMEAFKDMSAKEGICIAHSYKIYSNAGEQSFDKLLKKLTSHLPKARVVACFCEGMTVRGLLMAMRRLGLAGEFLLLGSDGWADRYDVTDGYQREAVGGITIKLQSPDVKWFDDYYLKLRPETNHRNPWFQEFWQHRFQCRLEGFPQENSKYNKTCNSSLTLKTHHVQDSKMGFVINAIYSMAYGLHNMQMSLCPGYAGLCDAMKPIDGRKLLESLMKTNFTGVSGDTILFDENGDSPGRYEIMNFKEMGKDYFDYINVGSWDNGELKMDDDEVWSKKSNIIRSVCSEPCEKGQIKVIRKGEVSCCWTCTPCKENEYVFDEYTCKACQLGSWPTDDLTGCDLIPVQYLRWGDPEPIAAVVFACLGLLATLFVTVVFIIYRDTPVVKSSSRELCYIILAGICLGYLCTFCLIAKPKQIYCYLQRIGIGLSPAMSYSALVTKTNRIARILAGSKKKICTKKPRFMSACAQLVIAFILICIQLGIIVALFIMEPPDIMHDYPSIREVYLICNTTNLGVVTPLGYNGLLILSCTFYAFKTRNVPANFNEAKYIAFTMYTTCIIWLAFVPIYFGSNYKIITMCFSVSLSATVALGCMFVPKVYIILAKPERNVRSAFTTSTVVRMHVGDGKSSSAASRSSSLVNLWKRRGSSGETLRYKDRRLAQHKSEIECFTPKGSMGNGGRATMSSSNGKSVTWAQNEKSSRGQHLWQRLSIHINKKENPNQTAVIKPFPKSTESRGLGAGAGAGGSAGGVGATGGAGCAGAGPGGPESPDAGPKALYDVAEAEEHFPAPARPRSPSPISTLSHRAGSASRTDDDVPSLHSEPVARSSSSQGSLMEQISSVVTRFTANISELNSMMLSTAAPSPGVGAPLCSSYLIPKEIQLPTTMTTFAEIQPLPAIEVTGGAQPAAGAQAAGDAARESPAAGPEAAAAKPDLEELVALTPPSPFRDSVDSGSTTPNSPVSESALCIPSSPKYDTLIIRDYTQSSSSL
protocol_details: Agonist potency against cloned metabotropic glutamate receptor 5
One threshold, 3 µM, splits the recorded Ki values: lower ones are Condition met, equal or higher ones are Condition not met.

// known answers, use as guide
[
  {
    "compound": "CC(N)(C(=O)O)c1ccc(P(=O)(O)O)cc1 (configuration not stated)",
    "answer_label": "Condition not met"
  },
  {
    "compound": "N[C@H](C(=O)O)c1cc(O)cc(O)c1",
    "answer_label": "Condition met"
  },
  {
    "compound": "N[C@H](C(=O)O)C12C3C4C1C1C2C3C41C(=O)O (some centres not stated)",
    "answer_label": "Condition not met"
  }
]

Hi there! Is Ki for C[C@](N)(Cn1c(=O)[nH]oc1=O)C(=O)O below 3 µM, do you know?
Condition not met

Hi there! Is Ki for N[C@H](C(=O)O)C12CC(C(=O)O)(C1)C2 below 3 µM, do you know?
Condition not met

Hi there! Is Ki for NC(CC1c2ccccc2Sc2ccccc21)(C(=O)O)c1ccc(C(=O)O)cc1 (configuration not stated) below 3 µM, do you know?
Condition not met

Hi there! Is Ki for N[C@@]1(C(=O)O)CCC2C[C@H](C(=O)O)C21 (some centres not stated) below 3 µM, do you know?
Condition not met

Hi there! Is Ki for N[C@@]1(C(=O)O)CC[C@H]2[C@H](C(=O)O)[C@H]21 below 3 µM, do you know?
Condition not met

Hi there! Is Ki for N[C@](CC1c2ccccc2Sc2ccccc21)(C(=O)O)[C@H]1C[C@@H](C(=O)O)C1 below 3 µM, do you know?
Condition met

Hi there! Is Ki for Cc1cccc(/C=C/c2ccccc2)n1 below 3 µM, do you know?
Condition met

Hi there! Is Ki for NC(C(=O)O)c1cc(=O)[nH]o1 (configuration not stated) below 3 µM, do you know?
Condition not met

Hi there! Is Ki for N[C@]1(C(=O)O)C2C(C[C@H]1O)[C@@H]2C(=O)O (some centres not stated) below 3 µM, do you know?
Condition not met
